target: Neu5Ac(a2-3)Gal(b1-3)GlcNAc(b1-2)[Neu5Ac(a2-3)Gal(b1-3)GlcNAc(b1-4)]Man(a1-6)[Neu5Ac(a2-3)Gal(b1-3)GlcNAc(b1-2)Man(a1-3)]Man(b1-4)GlcNAc(b1-4)GlcNAc; test: glycan array binding signal (z-score within array); higher = stronger binding; conditions: glycan notation: IUPAC condensed, linker removed
Many of the other results were omitted from the sample, so the strongest signals are more common in it than they were.
measured.parameter: glycan array binding signal (z-score)

>>> test_result("ArathEULS3 TAP (Arabidopsis thaliana) (protein) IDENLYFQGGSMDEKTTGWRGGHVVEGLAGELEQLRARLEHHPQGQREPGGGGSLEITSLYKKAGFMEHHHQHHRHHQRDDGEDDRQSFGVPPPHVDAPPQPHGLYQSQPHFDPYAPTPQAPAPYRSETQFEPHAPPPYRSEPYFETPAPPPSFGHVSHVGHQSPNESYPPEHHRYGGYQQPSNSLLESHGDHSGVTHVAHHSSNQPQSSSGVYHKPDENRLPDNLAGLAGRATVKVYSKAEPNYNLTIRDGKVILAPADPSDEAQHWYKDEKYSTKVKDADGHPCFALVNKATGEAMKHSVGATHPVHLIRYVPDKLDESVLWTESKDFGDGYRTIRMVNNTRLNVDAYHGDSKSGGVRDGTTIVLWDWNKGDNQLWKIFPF")
1.77
